target: UniProt Q96RU2; assay: Concentration-response biochemical assay confirming initial hits as inhibitors of ubiquitin-specific protease 28 (AID 1645866); settings: purified USP28, ubiquitin-rhodamine fluorescence, 30 min
The source made the active and inactive calls.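 The calls were made as follows: active = in confirmatory dose-response testing, peak deubiquitinase inhibition of 30% or more; inactive = the rest.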
Respond only with the outcome that fits, drawn from TRUE for active, FALSE for inactive

molecule	target desc	class label
Cc1ccc(-c2nc(-c3ccccc3)c(S(=O)(=O)CC(=O)Nc3ccc(C)c(C)c3)[nH]2)cc1	UniProt Q96RU2	TRUE

Query: Each molecule tested received a call. Report the one for Cn1c(=O)cc(SCC(=O)NC2CCN(Cc3ccccc3)CC2)c2ccc(Cl)cc21 .
Reply: TRUE

Query: Each molecule tested received a call. Report the one for Cc1nc(-c2ccc(C(=O)NCc3ccc(F)cc3)cc2)cs1 .
Reply: TRUE

Query: Each molecule tested received a call. Report the one for Cc1cnc(CN2CCCC(c3ccc4cn[nH]c4n3)C2)cn1 (configuration not stated) .
Reply: FALSE

###

target: Ubiquitin carboxyl-terminal hydrolase 28 (Homo sapiens)
Collected IC50 values appear next to each entry.

Illustrative cases are given below, each with its answer.
smiles structure	IC50
CCc1ccc(NC(=O)COC(=O)c2n[nH]c3ccccc23)cc1	12 µM
Cc1ccc(NC(=O)c2sc(=S)n(CCc3ccccc3)c2N)cc1	9.8 µM

Turning to the following compound.
Query: Item CC(C)Oc1ccc(C(=O)Nc2cccc(S(=O)(=O)N3CCCC3)c2)cc1 has what recorded IC50?
Reply: 10.7 µM

###

biological target: UniProt:Q96RU2; assay: Concentration-response biochemical assay confirming initial hits as inhibitors of ubiquitin-specific protease 28 (AID 1645866); conditions: purified USP28, ubiquitin-rhodamine fluorescence, 30 min
Calls of active or inactive are those of the source.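 Rule for the calls: active = in confirmatory dose-response testing, peak deubiquitinase inhibition of 30% or more; inactive = the rest.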
Respond only with the outcome that fits, drawn from yes = active, no = inactive

# example entries with known answers
compound	target desc	class label
CC(=O)N1CCc2cc(S(=O)(=O)NCCC(=O)Nc3cccc(C)c3C)ccc21	UniProt:Q96RU2	yes
O=C(c1cn(-c2cccc(F)c2)nn1)N1CCc2ccccc2C1	UniProt:Q96RU2	yes
Cc1ccc(Cn2nnc(-c3ccccc3Cl)n2)cc1	UniProt:Q96RU2	yes
CCOc1ccccc1NC(=O)COC(=O)C(c1ccccc1)c1ccccc1	UniProt:Q96RU2	no
O=C(CC(C(=O)Nc1ccc2c(c1)OCO2)C(=O)c1ccccc1)Nc1ccc(Cl)cc1F (centres undefined)	UniProt:Q96RU2	yes
COc1cccc2c1OCC(NS(=O)(=O)c1cc(C)ccc1C)C2 (centres undefined)	UniProt:Q96RU2	no
CNC(=O)C1CN(C(=O)c2ccc(OC)cc2)CC12CCCC2 (centres undefined)	UniProt:Q96RU2	no
O=C(NCc1ccccc1Cl)C1CCCN(c2nc3ccsc3c(=O)s2)C1 (centres undefined)	UniProt:Q96RU2	yes

Proceed to the following item.
Query: Each compound tested received a call. Report the one for COc1ccc(C)cc1NC(=O)COc1ccc2c(c1)OCO2 .
Reply: yes

###

Collected IC50 values appear next to each entry.
target: Ubiquitin carboxyl-terminal hydrolase 28 (Homo sapiens) (UniProt Q96RU2); assay: Concentration-response biochemical assay confirming initial hits as inhibitors of ubiquitin-specific protease 28 (AID 1645866); conditions: purified USP28, ubiquitin-rhodamine fluorescence, 30 min
Sequence (Q96RU2 whole entry, looked up): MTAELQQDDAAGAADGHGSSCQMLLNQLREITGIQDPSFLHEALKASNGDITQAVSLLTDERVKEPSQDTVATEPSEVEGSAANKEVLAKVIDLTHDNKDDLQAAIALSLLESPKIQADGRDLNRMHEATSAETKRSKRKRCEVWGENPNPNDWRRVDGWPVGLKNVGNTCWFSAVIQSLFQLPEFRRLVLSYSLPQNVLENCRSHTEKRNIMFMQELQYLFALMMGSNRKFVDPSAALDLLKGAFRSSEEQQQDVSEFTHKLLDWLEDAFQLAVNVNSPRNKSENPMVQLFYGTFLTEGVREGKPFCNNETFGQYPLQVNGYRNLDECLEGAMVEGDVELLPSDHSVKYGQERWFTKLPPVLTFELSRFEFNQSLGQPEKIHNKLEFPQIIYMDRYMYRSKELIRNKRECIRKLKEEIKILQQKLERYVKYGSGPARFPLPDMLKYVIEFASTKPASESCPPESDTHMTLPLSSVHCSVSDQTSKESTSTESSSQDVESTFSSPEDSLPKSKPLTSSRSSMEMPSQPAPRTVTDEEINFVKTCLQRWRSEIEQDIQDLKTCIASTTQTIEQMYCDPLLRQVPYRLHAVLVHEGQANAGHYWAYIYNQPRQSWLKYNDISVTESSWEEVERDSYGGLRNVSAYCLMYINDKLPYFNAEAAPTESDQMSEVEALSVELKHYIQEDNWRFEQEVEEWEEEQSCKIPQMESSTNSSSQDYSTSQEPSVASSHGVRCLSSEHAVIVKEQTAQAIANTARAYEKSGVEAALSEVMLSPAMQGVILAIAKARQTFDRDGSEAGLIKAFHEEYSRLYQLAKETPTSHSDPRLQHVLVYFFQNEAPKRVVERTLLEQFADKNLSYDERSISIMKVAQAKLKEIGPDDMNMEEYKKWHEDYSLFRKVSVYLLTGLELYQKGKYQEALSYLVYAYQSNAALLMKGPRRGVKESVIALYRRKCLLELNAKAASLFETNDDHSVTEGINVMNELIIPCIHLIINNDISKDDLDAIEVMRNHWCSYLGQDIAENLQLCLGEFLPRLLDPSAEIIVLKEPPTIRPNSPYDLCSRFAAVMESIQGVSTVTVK
Active and inactive are the calls of the source.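 Rule for the calls: active = in confirmatory dose-response testing, peak deubiquitinase inhibition of 30% or more; inactive = the rest.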

Illustrative cases are given below, each with its answer.
compound	quantity kind	test result
CCc1ccc(OCc2nnc(SCC(=O)Nc3ccccc3OC)n2Cc2ccccc2)cc1	IC50	> 50 µM (inactive)
COc1ccc(S(=O)(=O)N2CCc3ccccc32)cc1C(=O)Nc1ccc2[nH]c(=O)[nH]c2c1	IC50	9.13 µM
CC(C)Cc1nc2oc3c(N(C)CCO)ncnc3c2c2c1CCC2	IC50	> 50 µM (inactive)
Cn1cc(-c2cnc(-c3cccc(F)c3)nc2)cc1C(=O)NCc1cccnc1	IC50	36.8 µM
O=C(/C=C/c1ccc(F)cc1)N1CCc2ccccc2C1	IC50	35.1 µM

Query: Notebook entry, Ubiquitin carboxyl-terminal hydrolase 28 (Homo sapiens) (UniProt Q96RU2) assay: IC50 of N#Cc1ccccc1Cn1c(=O)n(Cc2ccco2)c(=O)c2ccccc21 = ?
Reply: 7.54 µM

Query: Notebook entry, Ubiquitin carboxyl-terminal hydrolase 28 (Homo sapiens) (UniProt Q96RU2) assay: IC50 of Cc1ccc(Cl)cc1NC(=O)c1cc(-c2ccccn2)n[nH]1 = ?
Reply: 13.4 µM

Query: Notebook entry, Ubiquitin carboxyl-terminal hydrolase 28 (Homo sapiens) (UniProt Q96RU2) assay: IC50 of Cn1nc(-c2nc(-c3ccccc3)no2)c2c1CCN(C(=O)C1CC1)C2 = ?
Reply: > 50 µM (inactive)

###

biological target: Ubiquitin carboxyl-terminal hydrolase 28 (Homo sapiens) (UniProt Q96RU2); experiment: Concentration-response biochemical assay confirming initial hits as inhibitors of ubiquitin-specific protease 28 (AID 1645866); conditions: purified USP28, ubiquitin-rhodamine fluorescence, 30 min
Active and inactive are the calls of the source.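 The calls were made as follows: active = in confirmatory dose-response testing, peak deubiquitinase inhibition of 30% or more; inactive = the rest.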
Respond only with the outcome that fits, drawn from True = active, False = inactive

# example entries with known answers
compound	class label
CC(c1ccccc1)c1nc(-c2ccc(=O)[nH]c2)no1 (stereo not given)	True
Fc1ccc(Cn2ccc(-c3cnc(-c4ccccc4)s3)n2)cc1	True
c1ccc2c(c1)CCc1c-2nc2ccccc2c1N1CCOCC1	False
Cc1ccc(-c2nc(-c3cccs3)cc(C(F)(F)F)c2C#N)cc1	False
COCCNC(=O)c1ccn(-c2ccc3ccc(-c4ccncc4)cn23)n1	False

Proceed to the following item.
Query: Each compound tested received a call. Report the one for O=C(Nc1cccn(Cc2c(Cl)cccc2Cl)c1=O)c1ccccc1[N+](=O)[O-] .
Reply: True

###

target: Ubiquitin carboxyl-terminal hydrolase 28 (Homo sapiens) (UniProt Q96RU2); experiment: Concentration-response biochemical assay confirming initial hits as inhibitors of ubiquitin-specific protease 28 (AID 1645866); details: purified USP28, ubiquitin-rhodamine fluorescence, 30 min
Active and inactive are the calls of the source.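 The calls were made as follows: active = in confirmatory dose-response testing, peak deubiquitinase inhibition of 30% or more; inactive = the rest.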
Respond only with the outcome that fits, drawn from active, inactive

compound	class label
O=C(NCc1ccccc1Cl)c1ccc(-c2nnc(-c3ccccc3)o2)cc1	active

Query: Each compound tested received a call. Report the one for COc1ccc(C2CC(c3ccc(C)cc3)N(C(=O)C3CC3)c3ncnn32)cc1 (stereo not drawn) .
Reply: inactive

Query: Each compound tested received a call. Report the one for Cc1cccc(OCCn2c(CCNC(=O)C3CCCCC3)nc3ccccc32)c1 .
Reply: active

###

biological target: Ubiquitin carboxyl-terminal hydrolase 28 (Homo sapiens); assay: Concentration-response biochemical assay confirming initial hits as inhibitors of ubiquitin-specific protease 28 (AID 1645866); details: purified USP28, ubiquitin-rhodamine fluorescence, 30 min
Activity calls are given as the source filed them.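 The calls were made as follows: active = in confirmatory dose-response testing, peak deubiquitinase inhibition of 30% or more; inactive = the rest.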
Respond only with the outcome that fits, drawn from YES (active), NO (inactive)

compound	target desc	class label
O=C(c1ccc2ncccc2c1)N1CCC2(C1)Nc1cccnc1NC2=NC1CCCC1 (centres undefined)	Ubiquitin carboxyl-terminal hydrolase 28 (Homo sapiens)	NO
CCOc1ccc(C2=NCCNC3=C2C(c2ccccc2)N(c2ccccc2)C3=O)cc1 (centres undefined)	Ubiquitin carboxyl-terminal hydrolase 28 (Homo sapiens)	NO
COc1cccc(N2CCN(C(=O)c3cc(NC(C)=O)cc4nc(C)ccc34)CC2)c1	Ubiquitin carboxyl-terminal hydrolase 28 (Homo sapiens)	NO
Cc1ccc(NC(=O)c2sc3ncn(CC(=O)N4CCN(c5ccccn5)CC4)c(=O)c3c2C)c(Br)c1	Ubiquitin carboxyl-terminal hydrolase 28 (Homo sapiens)	YES
O=C(NCc1ccc2c(c1)OCO2)c1nc(-c2ccccc2)n(-c2ccccc2)n1	Ubiquitin carboxyl-terminal hydrolase 28 (Homo sapiens)	NO

Query: Each compound tested received a call. Report the one for CCN(C(=O)c1cc2c(Cl)nc3ccccc3c2s1)c1ccccc1F .
Reply: NO

Query: Each compound tested received a call. Report the one for Cc1ccc(-c2noc(-c3nnc(SCC(=O)NC4CCCC4)n3C)n2)cc1 .
Reply: NO

Query: Each compound tested received a call. Report the one for COc1ccc(NC(=O)c2nnn(-c3ccccc3)c2C)cc1OC .
Reply: YES

###

molecular target: Ubiquitin carboxyl-terminal hydrolase 28 (Homo sapiens); test: Concentration-response biochemical assay confirming initial hits as inhibitors of ubiquitin-specific protease 28 (AID 1645866); details: purified USP28, ubiquitin-rhodamine fluorescence, 30 min
Active and inactive are the calls of the source.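 How the source made its calls: active means in confirmatory dose-response testing, peak deubiquitinase inhibition of 30% or more; inactive means the rest.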
quantity kind: IC50

Illustrative cases are given below, each with its answer.
compound	IC50
CCOC(=O)c1ccc(-n2c(=O)c(C#N)cc3c(=O)n4ccccc4nc32)cc1	> 50 µM (inactive)
Cc1ccc2c(c1C)NC(=O)[C@]21[C@@H]2C(=O)N(c3cccc(Cl)c3)C(=O)[C@@H]2[C@@H]2CCCN21	> 50 µM (inactive)
CCc1nc(N2CCCC2=O)sc1C(=O)Nc1cccc(C(C)=O)c1	17.1 µM
O=c1[nH]c(C2CCN(S(=O)(=O)c3ccc(S(=O)(=O)NC4CCCCC4)cc3)CC2)nc2c1nnn2Cc1c(F)cccc1Cl	17 µM
CCC(=O)Nc1cccnc1-c1ccc(C(=O)Nc2cccc(OC)c2)cc1	14.5 µM
COc1ccc(CC(=O)Nc2ccc3nc(N4CCOCC4)cc(C)c3c2)cc1	26 µM

Query: Item Cc1ccc2c(c1)c(=O)c(C(=O)c1ccc(F)cc1)cn2CC(=O)Nc1ccc2c(c1)OCCO2 has what recorded IC50?
Reply: 35.9 µM

Query: Item CC(=O)Nc1ccc([C@H]2OCC(=O)N(C3CCOCC3)[C@@H]2CO)cc1 has what recorded IC50?
Reply: > 50 µM (inactive)

Query: Item COc1ccc(C)cc1NC(=O)C1CC(=O)Nc2nc3ccccc3n21 (configuration not stated) has what recorded IC50?
Reply: 24.4 µM

Query: Item O=C(CN1C(=O)NC2(CCCCC2)C1=O)Nc1ccc([N+](=O)[O-])cc1 has what recorded IC50?
Reply: 33.2 µM
